# target.of.assay: T1, orthogonal hCD122 receptor (hoRb), hCD122 with H133D and Y134F (human, UniProt P14784 27-550)
# T1 sequence: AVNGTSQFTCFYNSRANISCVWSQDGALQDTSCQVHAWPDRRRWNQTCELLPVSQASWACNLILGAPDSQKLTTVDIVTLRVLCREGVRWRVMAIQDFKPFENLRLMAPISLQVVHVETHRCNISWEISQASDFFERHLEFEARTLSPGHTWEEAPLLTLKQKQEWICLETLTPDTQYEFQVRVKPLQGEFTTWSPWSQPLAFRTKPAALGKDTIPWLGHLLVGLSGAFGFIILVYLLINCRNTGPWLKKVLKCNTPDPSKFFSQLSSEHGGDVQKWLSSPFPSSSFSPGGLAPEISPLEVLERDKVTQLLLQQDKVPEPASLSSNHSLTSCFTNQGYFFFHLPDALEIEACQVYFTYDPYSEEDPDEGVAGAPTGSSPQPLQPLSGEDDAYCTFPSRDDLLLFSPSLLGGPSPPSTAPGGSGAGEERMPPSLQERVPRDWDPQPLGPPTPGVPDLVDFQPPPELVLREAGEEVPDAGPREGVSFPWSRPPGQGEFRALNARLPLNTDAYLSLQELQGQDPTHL
# method.notes: cell-based or functional assay
measured.quantity: NKL Ortho Proliferation Signal 1:10

- binder: "T3K, SQVLKA (ligand) APKSSSTKKTQLQLSQLLVLLKAILNGINNYKNPKLTRMLTFKFYMPKKATELKHLQCLEEELKPLEEVLNLAQSKNFHLRPRDLISNINVIVLELKGSETTFMCEYADETATIVEFLNRWITFCQSIISTLT"
  meas.value: 35500
- binder: "SQVLNA (ligand) APTSSSTKKTQLQLSQLLVLLNAILNGINNYKNPKLTRMLTFKFYMPKKATELKHLQCLEEELKPLEEVLNLAQSKNFHLRPRDLISNINVIVLELKGSETTFMCEYADETATIVEFLNRWITFCQSIISTLT"
  meas.value: 36500
- binder: "ΔT7, SQVLKA (ligand) APTSSSKKTQLQLSQLLVLLKAILNGINNYKNPKLTRMLTFKFYMPKKATELKHLQCLEEELKPLEEVLNLAQSKNFHLRPRDLISNINVIVLELKGSETTFMCEYADETATIVEFLNRWITFCQSIISTLT"
  meas.value: 51900

A. L85V, SQVLKA (ligand) APTSSSTKKTQLQLSQLLVLLKAILNGINNYKNPKLTRMLTFKFYMPKKATELKHLQCLEEELKPLEEVLNLAQSKNFHLRPRDVISNINVIVLELKGSETTFMCEYADETATIVEFLNRWITFCQSIISTLT
B. ΔD20, SQV_KA (ligand) APTSSSTKKTQLQLSQLLVLKAILNGINNYKNPKLTRMLTFKFYMPKKATELKHLQCLEEELKPLEEVLNLAQSKNFHLRPRDLISNINVIVLELKGSETTFMCEYADETATIVEFLNRWITFCQSIISTLT
I would appreciate it if you could say which entry, A or B , has the lower NKL Ortho Proliferation Signal 1:10 value. Output the label that corresponds to your choice.
B
(B: 9390, A: 49600)

I. SQVLKF (ligand) APTSSSTKKTQLQLSQLLVLLKFILNGINNYKNPKLTRMLTFKFYMPKKATELKHLQCLEEELKPLEEVLNLAQSKNFHLRPRDLISNINVIVLELKGSETTFMCEYADETATIVEFLNRWITFCQSIISTLT
II. ΔR81, SQVLKA (ligand) APTSSSTKKTQLQLSQLLVLLKAILNGINNYKNPKLTRMLTFKFYMPKKATELKHLQCLEEELKPLEEVLNLAQSKNFHLPRDLISNINVIVLELKGSETTFMCEYADETATIVEFLNRWITFCQSIISTLT
Just tell me: smaller NKL Ortho Proliferation Signal 1:10 value, I or II ? Identify your selection by its label.
I
(I: 44700, II: 68800)
